Conditions: buffer; pH 7.4; 200.0 µM
label 1 means recorded solubility kinetic is 20 µg/mL or above; label 0 means it is below 20 µg/mL.

compound: O=C(Cc1ccc(Cl)cc1Cl)OCC(=O)N1CCCCC1
assigned.class: label 1
--
compound: CC(=O)c1c(O)c2ccccc2n(C2CCCCC2)c1=O
assigned.class: label 0
--
compound: COc1ccc(NC(=O)COc2ccc(C)cc2)c([N+](=O)[O-])c1
assigned.class: label 0
--
compound: COc1ccc(-c2oc(=O)n(C)c2-c2ccc(OC)cc2)cc1
assigned.class: label 0
--
compound: CCn1c(=O)c(C(=O)Nc2ncccc2O)c(O)c2ccccc21
assigned.class: label 0
--
compound: OC(C#CCCN1CCCCC1)(c1ccccc1)c1ccccc1
assigned.class: label 1
--
compound: CCOc1ccc(N2CC(C(=O)NCc3ccccc3)CC2=O)cc1 (stereo unspecified)
assigned.class: label 0
--
compound: CON(C)S(=O)(=O)c1cccc(C(=O)N(CC(=O)Nc2ccccc2C(F)(F)F)Cc2ccco2)c1
assigned.class: label 1
--
compound: O=C(CS(=O)(=O)c1ccccc1)Nc1ncc([N+](=O)[O-])s1
assigned.class: label 1
--
compound: CCC(=NC)C1=C(O)CC(c2ccccc2)CC1=O (stereo unspecified)
assigned.class: label 1
--
compound: COCC1CCCN(C(=O)c2ccc3oc(C(C)C)nc3c2)C1 (stereo unspecified)
assigned.class: label 1
